study.system: human full-length MKNK1 (Homo sapiens, UniProt Q9BUB5, T385D)
Construct: GST (N); purchased Carna Biosciences 02-145; host or cells: insect cells (baculovirus expression system)
Sequence (Q9BUB5 1-424 isoform Q9BUB5-2 T344D): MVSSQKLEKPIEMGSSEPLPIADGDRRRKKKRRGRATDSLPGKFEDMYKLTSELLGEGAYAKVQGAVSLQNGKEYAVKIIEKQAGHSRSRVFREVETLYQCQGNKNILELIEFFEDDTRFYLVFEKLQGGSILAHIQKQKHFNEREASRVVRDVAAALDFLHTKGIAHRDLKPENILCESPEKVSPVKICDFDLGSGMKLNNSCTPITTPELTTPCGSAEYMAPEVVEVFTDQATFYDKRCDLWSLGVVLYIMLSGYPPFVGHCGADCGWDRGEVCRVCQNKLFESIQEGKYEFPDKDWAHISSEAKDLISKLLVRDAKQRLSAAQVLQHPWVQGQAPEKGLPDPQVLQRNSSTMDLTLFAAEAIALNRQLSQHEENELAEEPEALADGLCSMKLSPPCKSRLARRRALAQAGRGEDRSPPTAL
experiment.summary: MKNK1 kinase high ATP assay (TR-FRET)
Format: biochemical
condition.details: TR-FRET, 2 mM ATP (high ATP), 15 min preincubation with enzyme, 30 min reaction at 22° C.; read-out: MKNK1 IC50
API: label(entry) gives Y if the entry's IC50 is strictly smaller than 0.9 nM; on equality or larger values it gives N.

Item `Cc1cc(Nc2ncnc3sc4c(c23)CC[C@H](C(=O)N2CC(C#N)C2)C4)c(=O)n2c1C(=O)NC21CCC(F)(F)CC1` : IC50 beneath 0.9 nM, strictly? N

Please give the result for `O=C1NC2(CSC2)n2c1c(Cl)cc(Nc1ncnc3sc4c(c13)CC[C@H](C(=O)N1C[C@H]3C[C@@H]1CO3)C4)c2=O` too. Y

Proceed to `Cc1cc(Nc2ncnc3sc4c(c23)CC[C@H](C(=O)N(C)C)C4)c(=O)n2c1C(=O)NC21CS(=O)(=O)C1` N

What about `Cc1cc(Nc2ncnc3sc4c(c23)CC[C@H](C(=O)O)C4)c(=O)n2c1C(=O)NC21CCCC1` ? N

Try this compound next: `Cc1cc(Nc2ncnc3sc4c(c23)CC[C@H](C(=O)N2CCN(C)[C@H](C)C2)C4)c(=O)n2c1C(=O)NC21CSC1` Y

Param item: `C[C@@H]1CN(C(=O)[C@H]2CCc3c(sc4ncnc(Nc5cc(Cl)c6n(c5=O)C5(CSC5)NC6=O)c34)C2)CCN1C` Y

====

study.system: human full-length MKNK1 (Homo sapiens, UniProt Q9BUB5, T385D)
Construct: GST (N); purchased Carna Biosciences 02-145; host or cells: insect cells (baculovirus expression system)
experiment.summary: MKNK1 kinase high ATP assay (TR-FRET)
Type: biochemical
condition.details: TR-FRET, 2 mM ATP (high ATP), 15 min preincubation with enzyme, 30 min reaction at 22° C.; read-out: MKNK1 IC50
Would you kindly list pIC50 for each of these compounds?
Field pIC50 (float): negative decimal logarithm of the concentration in molar.

Give its pIC50 value. Item: Cc1cc(Nc2ncnc3sc4c(c23)CC[C@H](C(=O)N2CC(N(C)C)C2)C4)c(=O)n2c1C(=O)NC21CCC1 [Example 23] 9.40

Follow-up item: C[C@@H]1COCCN1C(=O)[C@H]1CCc2c(sc3ncnc(Nc4cc(Cl)c5n(c4=O)C4(CSC4)NC5=O)c23)C1 [Example 106] 9.52

Item: Cc1cc(Nc2ncnc3sc4c(c23)CC[C@H](C(=O)O)C4)c(=O)n2c1C(=O)N[C@]21CC[C@@](O)(C(F)(F)F)CC1 [Example 59] 7.42

Repeat with Cc1cc(Nc2ncnc3sc4c(c23)CC[C@H](C(=O)N(C)C)C4)c(=O)n2c1C(=O)NC21CSC1 [Example 45] 9.22

Field entry: O=C1NC2(CCCC2)n2c1c(Cl)cc(Nc1ncnc3sc4c(c13)CC[C@H](C(=O)N1CCC1)C4)c2=O [Example 87] 9.70

NC(=O)[C@H]1CCc2c(sc3ncnc(Nc4cc(Cl)c5n(c4=O)C4(CCCC4)NC5=O)c23)C1 [Example 85] , same question. 9.70

====

study.system: human full-length MKNK1 (Homo sapiens, UniProt Q9BUB5, T385D)
Construct: GST (N); purchased Carna Biosciences 02-145; host or cells: insect cells (baculovirus expression system)
experiment.summary: MKNK1 kinase high ATP assay (TR-FRET)
Format: biochemical
condition.details: TR-FRET, 2 mM ATP (high ATP), 15 min preincubation with enzyme, 30 min reaction at 22° C.; read-out: MKNK1 IC50
assay.readout: IC50 (nM)
Number in nM, nothing else.

So what's the measured IC50 for this one? `CN(C)C(=O)[C@H]1CCc2c(sc3ncnc(Nc4cc(Cl)c5n(c4=O)C4(CCCCC4)NC5=O)c23)C1` 1.7

Another molecule to look at: `N#CC1CN(C(=O)[C@H]2CCc3c(sc4ncnc(Nc5cc(Cl)c6n(c5=O)C5(CCC5)NC6=O)c34)C2)C1` 0.1

Try this molecule too: `Cc1cc(Nc2ncnc3sc4c(c23)CC[C@H](C(=O)N2CCC2)C4)c(=O)n2c1C(=O)N[C@]21CC[C@@](O)(C(F)(F)F)CC1` 8.4

Next: `CN(C)C(=O)[C@H]1CCc2c(sc3ncnc(Nc4cc(Cl)c5n(c4=O)C4(CCCC4)NC5=O)c23)C1` 0.1

====

Please provide measured pIC50 for the entries that follow.
study.system: human full-length MKNK1 (Homo sapiens, UniProt Q9BUB5, T385D)
Construct: GST (N); purchased Carna Biosciences 02-145; host or cells: insect cells (baculovirus expression system)
experiment.summary: MKNK1 kinase high ATP assay (TR-FRET)
Assay type: biochemical
condition.details: TR-FRET, 2 mM ATP (high ATP), 15 min preincubation with enzyme, 30 min reaction at 22° C.; read-out: MKNK1 IC50
Just so you know, pIC50 here is -log10 of the concentration in molar units; reply with that number alone.

Name the reported pIC50 value associated with the compound Cc1cc(Nc2ncnc3sc4c(c23)CC[C@H](C(=O)N2CCN(C)[C@H](C)C2)C4)c(=O)n2c1C(=O)NC21CCCC1 [Example 35] 9.40

Moving on to Cc1cc(Nc2ncnc3sc4c(c23)CC[C@H](C(=O)N2CC(N(C)C)C2)C4)c(=O)n2c1C(=O)NC21CSC1 [Example 48] 9.40

Please do the same for Cc1cc(Nc2ncnc3sc4c(c23)CC[C@H](C(=O)N2CC(N(C)C)C2)C4)c(=O)n2c1C(=O)NC21CCC(F)(F)CC1 [Example 55] as well. 9.22

Same again, this time with Cc1cc(Nc2ncnc3sc4c(c23)CC[C@H](C(=O)O)C4)c(=O)n2c1C(=O)NC21CCCCC1 [Example 1] 8.05

Queued: Cc1cc(Nc2ncnc3sc4c(c23)CC[C@H](C(=O)N2CC[C@H](N(C)C)C2)C4)c(=O)n2c1C(=O)NC2(C)C [Example 31] 9.05

Now consider O=C1NC2(CCC2)n2c1c(Cl)cc(Nc1ncnc3sc4c(c13)CC[C@H](C(=O)N1C[C@H]3C[C@@H]1CO3)C4)c2=O [Example 118] and answer again. 9.40

What about this compound? Cc1cc(Nc2ncnc3sc4c(c23)CC[C@H](C(=O)N2C[C@H]3C[C@@H]2CO3)C4)c(=O)n2c1C(=O)NC2(C)C [Example 33] 9.10

Would you kindly repeat that for Cc1cc(Nc2ncnc3sc4c(c23)CC[C@H](C(=O)N2CC(N(C)C)C2)C4)c(=O)n2c1C(=O)NC21CCCC1 [Example 40] ? 9.52

Quick one: C[C@@H]1CN(C(=O)[C@H]2CCc3c(sc4ncnc(Nc5cc(Cl)c6n(c5=O)C(C)(C)NC6=O)c34)C2)CCN1C [Example 115] 9.70

Then Cc1cc(Nc2ncnc3sc4c(c23)CC[C@H](C(=O)N2C[C@H]3C[C@@H]2CO3)C4)c(=O)n2c1C(=O)N[C@]21CC[C@@](O)(C(F)(F)F)CC1 [Example 64] ? 8.42
